For each of the binders below, state its kon.
Target: T1, Macaca fascicularis IL2Rγ extracellular domain expressed with a C-terminal myc-myc-hexahistidine tag (Macaca fascicularis)
T1 construct: also called mfIL-2Rg-MMH; mfIL-2RG-MMH
T1 chain: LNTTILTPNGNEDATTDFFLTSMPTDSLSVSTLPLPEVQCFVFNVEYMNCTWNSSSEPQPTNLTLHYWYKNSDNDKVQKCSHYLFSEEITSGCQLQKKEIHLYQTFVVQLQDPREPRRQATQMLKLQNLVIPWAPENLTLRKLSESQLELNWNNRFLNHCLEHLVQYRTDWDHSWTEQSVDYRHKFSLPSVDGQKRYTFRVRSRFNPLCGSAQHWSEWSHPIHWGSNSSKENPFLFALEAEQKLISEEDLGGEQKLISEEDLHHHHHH
Assay: SPR Biacore 4000, mAb captured by anti-hFc, HBS-ET, 25C
Kindly answer with a numeric value in M⁻¹ s⁻¹, unit omitted.

Q: Given H4H12899P (antibody, human IgG4 S228P, kappa, V domains shown, anti-IL2Rγ monoclonal antibody expressed with human IgG4 Fc) VH: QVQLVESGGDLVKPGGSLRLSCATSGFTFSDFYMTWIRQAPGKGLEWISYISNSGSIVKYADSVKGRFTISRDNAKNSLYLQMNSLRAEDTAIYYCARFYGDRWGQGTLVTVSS VL: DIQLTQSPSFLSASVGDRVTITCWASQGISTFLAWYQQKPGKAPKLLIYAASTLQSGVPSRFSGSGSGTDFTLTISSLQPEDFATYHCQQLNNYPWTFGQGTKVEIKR , state its recorded kon.
Result: 102000

Q: Continue with H4H12900P (antibody, human IgG4 S228P, kappa, V domains shown, anti-IL2Rγ monoclonal antibody expressed with human IgG4 Fc) VH: QVQLVESGGGLVKPGGSLRLSCEASGFTFNDFYMTWIRQAPGKGLEWIAYISKSGDKMRYADSVKGRFSTSRDNAKNSLSLQMNSLRAEDTAVYYCARFYGDIWGQGTLVTVSS VL: DIQLTQSPSFLSASVGDRVTITCWASQDISSFLVWYQQKPGKAPNLLIYAASALQSGVPSRFSGSGSGTEFTLTISSLQPEDFASYYCEQLNNYPWTFGQGTKVEIKR
Result: 232000

Q: Now consider H4H12874P (antibody, human IgG4 S228P, kappa, V domains shown, anti-IL2Rγ monoclonal antibody expressed with human IgG4 Fc) VH: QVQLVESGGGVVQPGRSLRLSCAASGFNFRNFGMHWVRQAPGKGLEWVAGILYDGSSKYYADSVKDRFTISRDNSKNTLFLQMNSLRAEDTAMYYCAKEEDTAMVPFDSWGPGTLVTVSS VL: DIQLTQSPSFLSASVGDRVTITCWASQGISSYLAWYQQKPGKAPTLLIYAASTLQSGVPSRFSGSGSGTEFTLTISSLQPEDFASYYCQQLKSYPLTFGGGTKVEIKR and answer again.
Result: 71500
